Molecular target: T1, hOX40-FC (human, UniProt P43489 29-216)
T1 construct: range 1-216; Made in HEK293; The stated range 1-216 starts at residue 1, so it holds the signal peptide of the entry; also called human OX40 extracellular region fused to human IgG1-Fc; not shown: human IgG1-Fc, UniProt P01857, residues 104 to 330
T1 sequence (looked up): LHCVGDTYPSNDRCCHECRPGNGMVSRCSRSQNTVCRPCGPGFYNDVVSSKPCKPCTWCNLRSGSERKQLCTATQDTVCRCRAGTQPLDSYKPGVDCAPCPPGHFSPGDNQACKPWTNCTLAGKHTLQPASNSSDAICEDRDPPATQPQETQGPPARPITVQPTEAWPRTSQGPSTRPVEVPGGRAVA
Experiment: BLI (ForteBio), biotinylated antibody on SA sensor, OX40-Fc 50 nM bivalent, 1:1 model
observable: Kd (nM)
Give the quantity in nM, number only.

Quick check: Kd of Antibody-M5-7k (antibody, human IgG1, kappa, V domains shown, also called antibody No. 9) VH: QVQLVESGGGLIQPGGSLRLSCTASGFTFSTYAMSWVRQAPGKGLEWVSAISGTGDWASYADSVKGRFTTSRDNSRNTLYLQMNNLRDEDTAIYYCAKSSSTVATDFDYGMDVWGQGTLVTVSS VL: DIVMTQSPSTLSASVGDRVTVTCRASEDIGRWLAWYQQKPGKAPKRLIYAASSLQSGVPSRFSGSGSGTEFTLTISSLQPEDFATYYCQQYYNYPPTFGQGTKVEIKR ?
0.4

Repeat with Antibody-F15-1L (antibody, human IgG1, kappa, V domains shown, also called Antibody-F15-IL; antibody No. 3) VH: QVQLRESGGGLVQPGGSLRLSCAASGFTFSSYAMNWVRQAPGKGLEWVSAISGSGGNTYYADSVKGRLTISRDNSKNTLYLQMNSLRAEDTAVYYCAKDPLGSSWFEYFQHWGQGTLVTVSS VL: QSALTQPASVSGSPGQSITISCTGTSSDVGGYNYVSWYQKHPGKAPKLMIYEVSNRPSGVSNRFSGSKSANTASLTISGLQAEDEADYFCSSYSSSSTLVVFGGGTKLTVLR
3

Repeat with Antibody-F23-4k (antibody, human IgG1, kappa, V domains shown, also called antibody No. 4) VH: QVQLEESGGGVVQPGESLRLSCAASGFTFSSYGMHWVRQAPGKGLEWVAVISYDGSNQYYADSVKGRFTISRDNSKNTLYLQMNSLRAEDTAVYYCAKDNQDSSPDVGIDYWGQGTLVTVSS VL: DIVMTQSPSSLSASVGDRVTITCRASQDILGYVNWYQQKPGKAPILLIYATSGLQGGVPSRFSGSGSGTDFTLTISSLQPEDFATYYCQQYNSYPLTFGGGTKVDIKR
0.6

And then Antibody-A2 (antibody, human IgG1, kappa, V domains shown, also called antibody No. 11) VH: QVQLVESGGGLIQPGGSLRLSCAASGFTVSSNYMSWVRQAPGEGLEWIATIYYGGSTYYNPSLKSRVTISADMSKNQFSLKLSSMTAADTAVYYCARVVVPGYFDLWGRGTLVTVSS VL: SSELTQDPAVSVALGQTVSITCQGDSLRSYYASWYQQKPGQAPVPVIYGKNNRPSGIPDRFSGSSSGNTASLTITGAQAEDEADYYCHSRDSSGKYVFGVGTKLTVLR , what is it?
9
